Source listed as patent US20170052184A1.

Measured OD (A492) by item
# study.target: T1, HCV Core1-169 (HCV-1, UniProt P26664 1-169)
# T1 construct: also called recombinant HCV core antigen
# T1 sequence: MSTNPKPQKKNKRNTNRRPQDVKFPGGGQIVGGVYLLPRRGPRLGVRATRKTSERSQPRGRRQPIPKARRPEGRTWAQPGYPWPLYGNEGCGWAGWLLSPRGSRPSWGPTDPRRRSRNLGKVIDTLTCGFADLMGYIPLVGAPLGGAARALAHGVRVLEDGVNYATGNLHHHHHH
# assay.name: EIA, core1-169 captured by mAb 14-153-229; also: test concentration or dose not given here

binder | OD (A492), OD
HCV 208A-442 (antibody, V domains shown) VH: DVQLQESGPGLVNPSQSLSLTCSVTGYSITSGYYWIWIRQFPGNKLEWMGYIKYDGGNNYSPSLKNRISIARDTSKNQFFLKLNSVTIEDTATYYCTRGSDSFDYWGQGTTLTVSS VL: DIVLTQSPASLAVSLGQRAIISCKASQSVSFAGTNLMHWYQQKPGQQPKLLIYRASNLETGVPTRFSGSGSRTDFTLNIHPVEEDDAATYYCQQSREYYTFGGGTKLEIKR | 0.36
HCV 208A-133 (antibody, V domains shown) VH: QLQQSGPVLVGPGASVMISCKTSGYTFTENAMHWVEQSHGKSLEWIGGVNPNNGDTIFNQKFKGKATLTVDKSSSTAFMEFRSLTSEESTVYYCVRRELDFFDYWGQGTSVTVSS VL: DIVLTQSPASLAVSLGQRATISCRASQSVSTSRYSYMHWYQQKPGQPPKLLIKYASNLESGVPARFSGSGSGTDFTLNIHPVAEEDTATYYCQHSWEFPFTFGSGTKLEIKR | 1.46
